- tested_system: T1, Human CD3eg linker (human)
- T1 construct: Single chain: epsilon and gamma subunits of human CD3 joined by a 29-mer linker, Flag-tag at the C-terminus; also called recombinant human CD3
- T1 chain: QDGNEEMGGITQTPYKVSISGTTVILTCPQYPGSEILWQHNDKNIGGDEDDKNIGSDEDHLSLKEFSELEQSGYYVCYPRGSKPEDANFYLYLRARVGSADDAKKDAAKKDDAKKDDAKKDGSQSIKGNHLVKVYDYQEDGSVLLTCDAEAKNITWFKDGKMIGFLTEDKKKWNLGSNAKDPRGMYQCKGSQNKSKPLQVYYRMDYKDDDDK
- assay_notes: Biacore SPR, vs template H183/L072
reported_metric: fold change of affinity (fold)
One number for each entry, in fold.

In the examples that follow, each entry is paired with its recorded fold change of affinity.
binder	numeric_value
H183/L072 VH H93A (antibody, name in Kabat numbering, V domains shown) VH: QVQLVESGGGLVQPGRSLRLSCAASGFTFSNAWMHWVRQAPGKGLEWVAQIKDKGNAYAAYYAPSVKGRFTISRDDSKNSIYLQMNSLKTEDTAVYYCAYVHYASASTVLPAFGVDAWGQGTTVTVSS VL: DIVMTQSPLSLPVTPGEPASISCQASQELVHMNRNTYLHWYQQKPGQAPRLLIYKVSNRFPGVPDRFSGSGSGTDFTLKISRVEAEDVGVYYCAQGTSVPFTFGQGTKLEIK	0
H183/L072 VH N31D (antibody, name in Kabat numbering, V domains shown) VH: QVQLVESGGGLVQPGRSLRLSCAASGFTFSDAWMHWVRQAPGKGLEWVAQIKDKGNAYAAYYAPSVKGRFTISRDDSKNSIYLQMNSLKTEDTAVYYCHYVHYASASTVLPAFGVDAWGQGTTVTVSS VL: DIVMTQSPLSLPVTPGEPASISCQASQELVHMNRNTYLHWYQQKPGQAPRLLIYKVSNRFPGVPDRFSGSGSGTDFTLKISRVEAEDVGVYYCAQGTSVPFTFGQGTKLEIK	0.1

Turning now to a further binder:
Request: So what does the record say about fold change of affinity for H183/L072 VH D52aA (antibody, name in Kabat numbering, V domains shown) VH: QVQLVESGGGLVQPGRSLRLSCAASGFTFSNAWMHWVRQAPGKGLEWVAQIKAKGNAYAAYYAPSVKGRFTISRDDSKNSIYLQMNSLKTEDTAVYYCHYVHYASASTVLPAFGVDAWGQGTTVTVSS VL: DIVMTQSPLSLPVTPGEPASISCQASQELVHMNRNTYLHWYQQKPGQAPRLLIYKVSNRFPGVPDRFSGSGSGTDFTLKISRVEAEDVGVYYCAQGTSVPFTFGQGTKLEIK ?
Result: 0
